B1: PHTF1 (parent)
chain: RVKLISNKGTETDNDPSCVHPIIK

- Variants of: B1
- Protocol summary: protein stability index of a GFP-peptide fusion (GPS, HEK-293T) (PSI 1-6); higher = more stable;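 also: lentivirally expressed fusions sorted by FACS into six bins by GFP to DsRed ratio, PSI derived from sequencing read proportions per bin multiplied by bin number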
- Experimental context: c terminus: a fixed tail appended
Assay readout: protein stability index

Below are worked cases with known answers.
Which measured protein stability index value corresponds to C18A ?
4.01

Which measured protein stability index value corresponds to C18L ?
4.09

Further cases:
Which measured protein stability index value corresponds to S17D ?
4.08
